# System Under Test: HIS-TGFβR1 T204D (Homo sapiens, UniProt P36897, T204D)
# Sequence (P36897 34-503 T204D): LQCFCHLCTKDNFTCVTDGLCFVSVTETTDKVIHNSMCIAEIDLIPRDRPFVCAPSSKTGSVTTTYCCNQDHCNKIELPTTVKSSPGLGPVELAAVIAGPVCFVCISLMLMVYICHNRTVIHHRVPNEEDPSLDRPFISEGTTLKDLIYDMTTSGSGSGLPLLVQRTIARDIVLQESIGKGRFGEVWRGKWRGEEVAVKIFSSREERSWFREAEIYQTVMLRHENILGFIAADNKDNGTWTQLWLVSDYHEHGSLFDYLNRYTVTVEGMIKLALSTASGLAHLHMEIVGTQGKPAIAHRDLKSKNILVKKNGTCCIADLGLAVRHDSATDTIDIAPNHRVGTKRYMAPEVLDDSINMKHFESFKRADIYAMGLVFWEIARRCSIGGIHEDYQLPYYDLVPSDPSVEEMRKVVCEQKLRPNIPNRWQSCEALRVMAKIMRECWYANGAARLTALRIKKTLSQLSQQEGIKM
# Test Protocol: HTRF probe-displacement assay, HIS-TGFβR1 T204D
# Assay type: binding
# Assay Context: read-out: TGFβR1 (μM) IC50
Outcome Measure: IC50 (µM)
# unit: µM | format: bare number

Below, each entry is followed by its recorded IC50 result.
[2H]C([2H])([2H])C(O)c1ccnc2c(-c3cccc(C(F)F)n3)c(-c3ccnc(NC(C)=O)c3)[nH]c12 (stereo not drawn) [Example 145]; 0.002
CC(=O)Nc1cc(-c2[nH]c3c(C(F)F)ccnc3c2-c2nc(C)cs2)ccn1 [Example 222]; 0.0015

// switching to the query compound
// IC50 lookup, key: O=C(CNCCO)Nc1cc(-c2[nH]c3cc(Cl)cnc3c2-c2ccc(F)cn2)ccn1 [Example 75]
0.005
